test system: MCF7 breast; assay: NCI tumour cell line growth inhibition, 48 h
Where a SMILES comes first, the peptide text is derived from it. The star is where a group is joined. Boc = CC(C)(C)OC(=O)*; OtBu = CC(C)(C)O*
If the reported TGI equals or exceeds 30 µM, assign YES. If not, assign NO.

{"columns": ["Molecule", "Assayed Target", "Class"],
 "data": [
  ["COc1cccc(O)c1-c1cc(=O)c2c(O)c(OC)c(OC)c(OC)c2o1", "MCF7 breast", "YES"],
  ["CCCCCCCC(=O)N1C2CC3CCC2(CS1(=O)=O)C3(C)C (stereo not drawn)", "MCF7 breast", "YES"],
  ["O=C(/C=C/c1ccccc1)c1ccccn1", "MCF7 breast", "YES"],
  ["COc1ccc(N(c2ccc(C#N)cc2)c2ccc(C#N)cc2)cc1", "MCF7 breast", "YES"],
  ["O=C(N=Nc1c(O)[nH]c2c(Cl)cc(Cl)cc12)C(=O)Nc1cccc(C(F)(F)F)c1", "MCF7 breast", "YES"],
  ["COc1ccc(Cc2nc3cc(C(F)(F)F)ccc3n2C[C@@H]2CCCN3CCCCC23)cc1 (stereo partly drawn)", "MCF7 breast", "NO"],
  ["CC(=O)OC1=C(c2ccccc2)S(=O)(=O)c2ccccc21", "MCF7 breast", "YES"],
  ["COc1cc2nc(NC3CCC3)nc(NC3CCN(C(C)C)CC3)c2cc1OC", "MCF7 breast", "NO"],
  ["CC(=O)OC(C(=O)NNC(=O)OC(C)(C)C)c1ccccc1 (stereo not drawn)", "MCF7 breast", "YES"],
  ["CC(C)(C)OC(=O)CC(NC(=O)OC(C)(C)C)C(=O)NC(Cc1ccccc1)C(N)=O (stereo not drawn) (Boc-Asp(OtBu)-Phe-NH2; configuration not given here)", "MCF7 breast", "YES"],
  ["CS(=O)c1cc(=O)c2ccccc2s1 (stereo not drawn)", "MCF7 breast", "NO"],
  ["CN1CC[C@H](N(C)C(=O)N2CC(c3cc(F)ccc3F)=C[C@@]2(CO)c2ccccc2)[C@H](F)C1", "MCF7 breast", "YES"],
  ["COc1cc(N(CCC#N)CCC#N)ccc1/C(N=Nc1cccc([N+](=O)[O-])c1)=N\\NC(=O)c1ccc(C)cc1", "MCF7 breast", "YES"],
  ["COc1ccc2c(c1)SC1=Nc3sc4cc(OC)ccc4[n+]3CN12", "MCF7 breast", "YES"],
  ["Fc1cnccc1-c1nc2ccc3[nH]ncc3c2c2c1CCCC2", "MCF7 breast", "NO"],
  ["CCO/C=N\\C1=C(C#N)SC2=N/C(=C\\c3ccco3)C(=O)N21", "MCF7 breast", "YES"]
]}
